Reference source: patent US20240207224A1

What IC50 was measured for each of the following?
# TARGET OF ASSAY: SARS-CoV-2 Papain-like (PLpro) protease (Severe acute respiratory syndrome coronavirus 2)
# ASSAY OVERVIEW: biochemical
# EXPERIMENTAL PARAMETERS: ubiquitin-fluorophore substrate (Ub-R110), 30 min preincubation at RT, run in duplicate; read-out: PLpro IC50

{"TEST SMILES": "COC(=O)/C=C/C(=O)NNC(=O)CCc1ccc2cc1C(=O)N[C@H](C)c1cc(cc3ccccc13)C=CCCCCN(C)C2=O", "TARGET OF ASSAY": "SARS-CoV-2 Papain-like (PLpro) protease (Severe acute respiratory syndrome coronavirus 2)", "IC50": "< 100 nM"}

Report IC50 for each item below.
1. C[C@H]1NC(=O)c2cc(ccc2C#N)C(=O)NCCCCCc2cc1c1ccccc1c2
2. COC(=O)/C=C/C(=O)NNC(=O)CCc1ccc2cc1C(=O)N[C@H](C)c1cc(cc3c1CCCC3)CCCCCNS2(=O)=O
3. COC(=O)/C=C/C(=O)NNC(=O)CCc1ccc2cc1C(=O)N[C@H](C)c1cc(cc3ccccc13)CCCCOC(=O)N2
4. COC(=O)/C=C/C(=O)NNC(=O)CCc1ccc2cc1C(=O)N[C@H](C)c1cc(cc3ccccc13)CCCCOCCNC2=O
5. Cc1ccc2cc1C(=O)N[C@H](C)c1cc(cc3ccccc13)C=CCCN(C(=O)OCc1ccccc1)C2
6. Cc1ccc2cc1C(=O)N[C@H](C)c1cc(cc3ccccc13)-c1cn(nn1)CCCCC(=O)NC2

1: 1000 to 10000 nM; 2: 100 to 1000 nM; 3: < 100 nM; 4: < 100 nM; 5: > 10000 nM; 6: 100 to 1000 nM

---

# TARGET OF ASSAY: SARS-CoV-2 Papain-like (PLpro) protease (Severe acute respiratory syndrome coronavirus 2)
# ASSAY OVERVIEW: biochemical
# EXPERIMENTAL PARAMETERS: ubiquitin-fluorophore substrate (Ub-R110), 30 min preincubation at RT, run in duplicate; read-out: PLpro IC50
pIC50: −log10 of the molar value.
QUANTITY: pIC50

Examples with answers:
{"TEST SMILES": "COC(=O)/C=C/C(=O)N(NC(=O)CCc1ccc2cc1C(=O)N[C@H](C)c1cc(cc3ccccc13)CCCCOCCNC2=O)C(=O)/C=C/C(=O)OC", "RESULT": "> 7.00"}
{"TEST SMILES": "COC(=O)/C=C/C(=O)NNC(=O)CCc1ccc2cc1C(=O)N[C@H](C)c1cc(cc3ccccc13)C=CCCCCNC2=O", "RESULT": "> 7.00"}
{"TEST SMILES": "Cc1ccc2cc1C(=O)N[C@H](C)c1cc(cc3ccccc13)N1CCN(CCCCC(=O)NC2)CC1", "RESULT": "< 5.00"}
{"TEST SMILES": "COC(=O)/C=C/C(=O)NNC(=O)CCc1ccc2cc1C(=O)N[C@H](C)c1cc(cc3ccccc13)CCCCCCNC2=O", "RESULT": "> 7.00"}

Report pIC50 for each item below.
1. Cc1ccc2cc1C(=O)N[C@H](C)c1cc(cc3ccccc13)C=CCCCCC2
2. Cc1ccc2cc1C(=O)N[C@H](C)c1cc(cc3ccccc13)C(=O)N1CCN(CC1)C(=O)CC2
3. COC(=O)/C=C/C(=O)NNC(=O)CCc1ccc2cc1C(=O)N[C@H](C)c1cccc(c1)C=CCCCCC2

< 5.00
< 5.00
5.00 to 6.00

---

What pIC50 was measured for each of the following?
# TARGET OF ASSAY: SARS-CoV-2 Papain-like (PLpro) protease (Severe acute respiratory syndrome coronavirus 2, UniProt P0DTD1)
# ASSAY OVERVIEW: biochemical
pIC50: −log10 of the molar value.

{"TEST SMILES": "Cc1ccc2cc1C(=O)N[C@H](C)c1cc(cc3ccccc13)-c1cn(nn1)CCCCNC2", "RESULT": "6.00 to 7.00"}

Moving on to the next compound.
Please give the documented pIC50 of `Cc1ccc2cc1C(=O)N[C@H](C)c1cc(cc3ccccc13)C=CCCCN(C(=O)OCc1ccccc1)C2`
< 5.00

---

# TARGET OF ASSAY: SARS-CoV-2 Papain-like (PLpro) protease (Severe acute respiratory syndrome coronavirus 2)
# ASSAY OVERVIEW: biochemical
# EXPERIMENTAL PARAMETERS: ubiquitin-fluorophore substrate (Ub-R110), 30 min preincubation at RT, run in duplicate; read-out: PLpro IC50
pIC50: −log10 of the molar value.
QUANTITY: pIC50

Examples with answers:
{"MOLECULE": "COC(=O)/C=C/C(=O)NNC(=O)CCc1ccc2cc1C(=O)N[C@H](C)c1cc(cc3ccccc13)CCCCCS(=O)(=O)C2 [Example 24]", "RESULT": "> 7.00"}
{"MOLECULE": "Cc1ccc2cc1C(=O)N[C@H](C)c1cc(cc3ccccc13)C(=O)N(C)CCCC(=O)NC2 [Example 12]", "RESULT": "< 5.00"}
{"MOLECULE": "COC(=O)/C=C/C(=O)NNC(=O)CCc1ccc2cc1C(=O)N[C@H](C)c1cc(cc3ccccc13)CCCCCCN(C)C2=O [Example 30]", "RESULT": "> 7.00"}
{"MOLECULE": "COC(=O)/C=C/C(=O)NNC(=O)CCc1ccc2cc1C(=O)N[C@H](C)c1cc(cc3ccccc13)CCCCCN(C)C2=O [Example 31]", "RESULT": "> 7.00"}
{"MOLECULE": "COC(=O)/C=C/C(=O)NNC(=O)CCc1ccc2cc1C(=O)N[C@H](C)c1cc(cc3ccccc13)C=CCCCNC2=O [Example 28]", "RESULT": "> 7.00"}
{"MOLECULE": "Cc1ccc2cc1C(=O)N[C@H](C)c1c(ccc3ccccc13)CCCCNC2 [Example 7]", "RESULT": "5.00 to 6.00"}
{"MOLECULE": "Cc1ccc2cc1C(=O)N[C@H](C)c1cc(cc3ccccc13)CCCCCCNC2 [Example 5]", "RESULT": "6.00 to 7.00"}
{"MOLECULE": "COC(=O)/C=C/C(=O)NNC(=O)CCc1ccc2cc1C(=O)N[C@H](C)c1cc(cc3ccccc13)CCCCCCS(=O)(=O)C2 [Example 23]", "RESULT": "> 7.00"}
{"MOLECULE": "Cc1ccc2cc1C(=O)N[C@H](C)c1cc(cc3ccccc13)N1CCN(CCCC(=O)NC2)CC1 [Example 15]", "RESULT": "5.00 to 6.00"}
{"MOLECULE": "COC(=O)/C=C/C(=O)NNC(=O)CCc1ccc2cc1C(=O)N[C@H](C)c1cc(cc3ccccc13)CCCCCC(=O)N2 [Example 39]", "RESULT": "> 7.00"}

Report pIC50 for each item below.
1. COC(=O)/C=C/C(=O)NNC(=O)CCc1ccc2cc1C(=O)N[C@H](C)c1cc(cc3ccccc13)C=CCCCCC2 [Example 19]
2. COC(=O)/C=C/C(=O)NNC(=O)CCc1ccc2cc1C(=O)N[C@H](C)c1cc(cc3ccccc13)CCCCCNS2(=O)=O [Example 35]
3. Cc1ccc2cc1C(=O)N[C@H](C)c1cc(cc3ccccc13)-c1cn(nn1)CCCC(=O)NC2 [Example 13]

1: > 7.00; 2: > 7.00; 3: < 5.00
